The reported measurements were obtained from patent US20230374116A1.

# Test System: SARS-CoV-2 receptor-binding domain (amino acids 330-532), prototypical Wuhan/Victoria (SARS-CoV-2 (Wuhan/Victoria), UniProt P0DTC2 330-532)
# Experiment Summary: SPR, RBD binding kinetics

- Binder: "C1-SUMO-H3-Fc (Fc fusion, also called C1-GSGSGS-SUMO-GSGSGS-H3) QVQLVESGGGLVQPGGSLRLSCAASGFTNDFYSIAWFRQAPGKEREGVSWLSVSDNTPTYVDSVKDRFTISRHNANNTVYLQMNMLKPEDTAIYYCAAGRFAGRDTWPSSYDYWGQGTQVTVSSGSGSGSDSEVNQEAKPEVKPEVKPETHINLKVSDGSSEIFFKIKKTTPLRRLMEAFAKRQGKEMDSLRFLYDGIRIQADQTPEDLDMEDNDIIEAHREQIGSGSGSQVQLVESGGGLVKTGGSLRLSCAASGRTFSTYSMGWFRQAPGKEREFVAGMRWTGSSTFYSDSVKGRFTVSRNNAKDTVYLHMNSLKPEDTAVYYCAITTIVRAYYTEYTEADFGSWGQGTQVTVS"
  Kd, nM: 0.011
